ECmax; SRE-luciferase reporter for assorted binders
Target: T1, GPR39 (G protein coupled receptor 39) (UniProt O43194 1-453, limits assumed)
T1 sequence (looked up): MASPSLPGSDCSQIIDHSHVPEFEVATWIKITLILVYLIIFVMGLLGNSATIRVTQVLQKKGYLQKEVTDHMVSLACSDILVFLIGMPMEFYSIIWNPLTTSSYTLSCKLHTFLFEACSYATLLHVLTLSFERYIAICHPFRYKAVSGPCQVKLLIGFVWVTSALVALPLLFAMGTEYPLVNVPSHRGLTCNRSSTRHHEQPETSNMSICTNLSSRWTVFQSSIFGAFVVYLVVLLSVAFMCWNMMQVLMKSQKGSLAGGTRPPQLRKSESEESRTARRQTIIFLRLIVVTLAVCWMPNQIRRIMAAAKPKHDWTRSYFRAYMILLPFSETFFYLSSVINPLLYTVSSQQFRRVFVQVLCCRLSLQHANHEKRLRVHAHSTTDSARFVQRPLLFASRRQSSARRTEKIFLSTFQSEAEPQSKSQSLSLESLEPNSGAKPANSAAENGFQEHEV
Experiment: cell-based or functional assay
Square brackets hold non-standard residues; d marks the D form. Ends that are not written are not given here. * marks the point of attachment. DAMP‑2 = 1,3-bis(2-cyclohexylethyl) substitution on the histidine imidazole ring (1,3-bis(2-cyclohexylethyl)-2,3-dihydro-1H-imidazol-4-yl side chain), C1=C(*)N(CCC2CCCCC2)CN1CCC1CCCCC1; 4‑hydroxybenzhydryl = (4-hydroxyphenyl)(phenyl)methyl on the His imidazole, Oc1ccc(C(c2ccccc2)*)cc1; dPhe(4-Cl) = N[C@H](Cc1ccc(Cl)cc1)C(=O)O; dPhe(4-Me) = Cc1ccc(C[C@@H](N)C(=O)O)cc1; Trt = c1ccc(C(c2ccccc2)(c2ccccc2)*)cc1; dPhe(4-F) = N[C@H](Cc1ccc(F)cc1)C(=O)O; 2‑cyclohexylethyl = C1CCC(CC*)CC1; Octanoyl = CCCCCCCC(=O)*

Value lookup for ECmax; SRE-luciferase reporter; key = HK(Octanoyl)FY (not fully specified; also: His1 substituent: phenethyl or phenylpropyl) [HKFY-19]
18 -fold induction over basal

Value lookup for ECmax; SRE-luciferase reporter; key = H(Trt)[dK](Octanoyl)[dPhe(4-Cl)]Y [HKFY-16]
27.9 -fold induction over basal

Value lookup for ECmax; SRE-luciferase reporter; key = H(4‑hydroxybenzhydryl)K(Octanoyl)[dPhe(4-Me)]Y-OH [HKFY-65]
18.3 -fold induction over basal

Value lookup for ECmax; SRE-luciferase reporter; key = H(DAMP‑2)K(Octanoyl)FY [HKFY-8]
17.3 -fold induction over basal

Value lookup for ECmax; SRE-luciferase reporter; key = H(Trt)K(Octanoyl)[dPhe(4-F)]Y-OH [HKFY-28]
22.9 -fold induction over basal

Turning now to a further record.
Value lookup for ECmax; SRE-luciferase reporter; key = H(2‑cyclohexylethyl)K(Octanoyl)FY [HKFY-11]
22 -fold induction over basal
